# Experiment description: Pharmacokinetics in female BALB/c nude mice bearing A375 xenografts, 1 day dosing (PK and PD study): plasma, tumor and brain concentrations, AUC
# Format: in vivo
# Conditions: mouse, tumor, po, 3 mg/kg, 3 mg/kg p.o. BID × 1 day; post 2nd dose; 1 h; read-out: Mean Concentration in Tumor ± SEM
Quantity measured: concentration at 1 h (ng/g)
Write down the numeric answer in ng/g and omit the unit.

Given the molecule "CCN(C)S(=O)(=O)Nc1ccc(F)c(Oc2ccc3ncn([C@H]4COC5(CCN(C6CC7(C6)CN(c6cc8c(cc6F)c(N6CCC(=O)NC6=O)nn8C)C7)CC5)C4)c(=O)c3c2)c1C#N" , what is its reported concentration at 1 h?
581

----------
# Experiment description: Example 8 pharmacokinetics assay for efficacy study (plasma, liver)
# Assay type: in vivo, BALB/c nude mice
# Conditions: mouse, liver, po, 35 mg/kg, p.o., QD × 21 days, read-out: Concentration in Liver (mean ± SEM)
Quantity measured: concentration at 6 h (ng/g)
Hi! Could you send only the number? It should be in ng/g, unit omitted.

Suppose we examine the compound COC(=O)N[C@@H](C)CNc1nccc(-c2cn(C(C)C)nc2-c2cc(Cl)cc(NS(C)(=O)=O)c2F)n1 [Encorafenib, encorafenib, reference compound] ; what concentration at 6 h value has been reported?
186

----------
# Target or system: BRAF V600E (Homo sapiens, UniProt P15056+Q96SW2, V600E)
# Construct: knock-in of the HiBiT tag to the endogenous BRAF V600E locus; host or cells: A375.10 (A375 clonal line, CRISPR HiBiT knock-in at the endogenous BRAF V600E locus)
# Sequence (P15056 whole entry V600E): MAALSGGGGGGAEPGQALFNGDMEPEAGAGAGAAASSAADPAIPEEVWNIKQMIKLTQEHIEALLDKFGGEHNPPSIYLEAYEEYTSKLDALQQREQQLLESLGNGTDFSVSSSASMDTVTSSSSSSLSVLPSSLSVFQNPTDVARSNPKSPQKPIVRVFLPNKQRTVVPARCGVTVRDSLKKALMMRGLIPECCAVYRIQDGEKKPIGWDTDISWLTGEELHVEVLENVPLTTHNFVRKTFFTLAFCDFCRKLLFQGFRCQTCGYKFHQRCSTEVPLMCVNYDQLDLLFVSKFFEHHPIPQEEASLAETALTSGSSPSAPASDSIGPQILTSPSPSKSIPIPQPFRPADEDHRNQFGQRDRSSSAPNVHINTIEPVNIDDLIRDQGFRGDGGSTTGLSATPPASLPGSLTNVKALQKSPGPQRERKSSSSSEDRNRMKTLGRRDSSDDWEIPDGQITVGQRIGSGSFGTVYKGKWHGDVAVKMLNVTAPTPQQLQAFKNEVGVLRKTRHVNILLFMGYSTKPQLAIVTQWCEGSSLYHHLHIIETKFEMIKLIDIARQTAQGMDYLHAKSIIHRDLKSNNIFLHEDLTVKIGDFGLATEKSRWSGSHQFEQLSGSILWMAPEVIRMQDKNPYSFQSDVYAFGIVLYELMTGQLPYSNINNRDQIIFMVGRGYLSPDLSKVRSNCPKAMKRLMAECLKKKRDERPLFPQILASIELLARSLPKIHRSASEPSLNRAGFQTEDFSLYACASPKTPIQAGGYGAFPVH
# Sequence (Q96SW2 whole entry): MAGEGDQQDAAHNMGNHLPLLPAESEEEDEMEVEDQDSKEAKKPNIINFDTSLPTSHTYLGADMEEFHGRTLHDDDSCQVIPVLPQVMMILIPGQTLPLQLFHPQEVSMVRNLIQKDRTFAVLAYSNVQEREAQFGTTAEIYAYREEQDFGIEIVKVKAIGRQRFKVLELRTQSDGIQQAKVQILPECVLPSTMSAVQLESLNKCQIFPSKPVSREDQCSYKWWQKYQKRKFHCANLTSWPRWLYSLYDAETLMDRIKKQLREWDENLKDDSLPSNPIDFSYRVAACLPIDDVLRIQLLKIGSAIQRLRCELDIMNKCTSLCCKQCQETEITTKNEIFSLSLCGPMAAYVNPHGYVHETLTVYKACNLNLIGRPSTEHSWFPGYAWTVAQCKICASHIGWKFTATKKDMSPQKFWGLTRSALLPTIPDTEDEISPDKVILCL
# Sequence (Q16531 whole entry partner): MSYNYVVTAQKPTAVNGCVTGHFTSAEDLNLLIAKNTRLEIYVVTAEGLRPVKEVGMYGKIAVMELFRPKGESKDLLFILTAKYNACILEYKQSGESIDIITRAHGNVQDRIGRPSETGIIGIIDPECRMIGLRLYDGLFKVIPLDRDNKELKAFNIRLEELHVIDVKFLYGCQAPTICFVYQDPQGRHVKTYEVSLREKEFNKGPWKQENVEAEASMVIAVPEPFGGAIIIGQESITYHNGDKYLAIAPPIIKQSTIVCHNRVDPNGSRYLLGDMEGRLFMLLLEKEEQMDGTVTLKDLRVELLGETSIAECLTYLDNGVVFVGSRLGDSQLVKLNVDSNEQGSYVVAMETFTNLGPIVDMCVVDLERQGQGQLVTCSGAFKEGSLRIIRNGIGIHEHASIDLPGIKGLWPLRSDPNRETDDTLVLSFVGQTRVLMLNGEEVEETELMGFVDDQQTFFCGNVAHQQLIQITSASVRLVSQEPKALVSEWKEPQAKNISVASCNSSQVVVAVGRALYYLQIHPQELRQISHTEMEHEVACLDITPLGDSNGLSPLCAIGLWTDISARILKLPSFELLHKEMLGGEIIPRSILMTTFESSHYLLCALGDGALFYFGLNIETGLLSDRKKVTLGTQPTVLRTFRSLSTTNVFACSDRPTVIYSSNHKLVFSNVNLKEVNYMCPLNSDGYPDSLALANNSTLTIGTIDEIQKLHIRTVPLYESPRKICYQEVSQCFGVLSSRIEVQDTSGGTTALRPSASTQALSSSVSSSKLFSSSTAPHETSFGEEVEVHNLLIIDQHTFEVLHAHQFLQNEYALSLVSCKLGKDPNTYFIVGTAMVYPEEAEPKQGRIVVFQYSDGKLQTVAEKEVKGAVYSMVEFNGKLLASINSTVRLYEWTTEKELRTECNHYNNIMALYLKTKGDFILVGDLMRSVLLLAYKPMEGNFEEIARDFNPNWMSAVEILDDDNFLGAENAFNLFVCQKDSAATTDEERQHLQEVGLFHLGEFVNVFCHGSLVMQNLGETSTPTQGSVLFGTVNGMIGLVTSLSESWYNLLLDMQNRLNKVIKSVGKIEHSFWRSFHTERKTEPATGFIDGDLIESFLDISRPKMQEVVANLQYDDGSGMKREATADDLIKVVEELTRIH
# Experiment description: BRAF V600E HiBiT Degradation Assay
# Type: cell-based
# Conditions: A375.10 cells, BRAF V600E, 2 hours; residual protein remaining; read-out: HiBiT-Degradation A375.10 BRAF 2 hours Emax
Entries annotated with measured Emax

INSERT INTO measurements (compound, target_or_system, result) VALUES
  ('CCN(C)S(=O)(=O)Nc1ccc(F)c(Oc2ccc3ncn([C@H]4COC5(CCN(C6CC(c7ccc(NC8CCC(=O)NC8=O)cc7F)C6)CC5)C4)c(=O)c3c2)c1C#N (single isomer, unassigned) [Compound 62]', 'BRAF V600E (Homo sapiens, UniProt P15056+Q96SW2, V600E)', '< 50%'),
  ('CCN(C)S(=O)(=O)Nc1ccc(F)c(Oc2ccc3ncc(OCC4(O)CCN(C5CCC(c6cc7c(cc6F)c(N6CCC(=O)NC6=O)nn7C)CC5)CC4)nc3c2)c1C#N (single isomer, unassigned) [Compound 195]', 'BRAF V600E (Homo sapiens, UniProt P15056+Q96SW2, V600E)', '50 to 90%'),
  ('CCN(C)S(=O)(=O)Nc1ccc(F)c(Oc2ccc3ncn([C@@H]4COC5(C4)CN(C4CCC(c6cc7c(cc6F)c(N6CCC(=O)NC6=O)nn7C)CC4)C5)c(=O)c3c2)c1C#N (single isomer, unassigned) [Compound 237]', 'BRAF V600E (Homo sapiens, UniProt P15056+Q96SW2, V600E)', '< 50%');

# input compound: CC(C)S(=O)(=O)Nc1ccc(F)c(Oc2ccc3ncn([C@H]4COC5(CCN(C6CCC(c7ccc(NC8CCC(=O)NC8=O)cc7F)CC6)CC5)C4)c(=O)c3c2)c1C#N (single isomer, unassigned) [Compound 92] ; wanted: its Emax
< 50%

CN(CCO)S(=O)(=O)Nc1ccc(F)c(Oc2ccc3ncc(C4CC5(CCN(C6CCC(c7cc8c(cc7F)c(N7CCC(=O)NC7=O)nn8C)CC6)CC5)C4)nc3c2)c1C#N (single isomer, unassigned) [Compound 294] , same question.
50 to 90%

Next: CN(CCO)S(=O)(=O)Nc1ccc(F)c(Oc2ccc3ncc([C@H]4COC5(CCN(C6CCC(c7cc8c(cc7F)c(N7CCC(=O)NC7=O)nn8C)CC6F)CC5)C4)nc3c2)c1C#N (single isomer, unassigned) [Compound 170]
50 to 90%

Similarly, CCN(C)S(=O)(=O)Nc1ccc(F)c(Oc2ccc3ncn([C@H]4CO[C@]5(CCN(C6CCC(c7cc8c(cc7F)c(N7CCC(=O)NC7=O)nn8C)CC6)C5)C4)c(=O)c3c2)c1C#N (single isomer, unassigned) [Compound 288] ?
50 to 90%

How about CCN(C)S(=O)(=O)Nc1ccc(F)c(Oc2ccc3ncn(C4CC5(CCN(C6COC7(CCN(c8cc9c(cc8F)c(N8CCC(=O)NC8=O)nn9C)CC7)C6)CC5)C4)c(=O)c3c2)c1C#N (stereo not drawn) [Compound 216] ?
< 50%

Consider next the compound CCN(C)S(=O)(=O)Nc1ccc(F)c(Oc2ccc3ncn(C4CC5(CCC(N6CC[C@H](c7cc8c(cc7F)c(N7CCC(=O)NC7=O)nn8C)C(F)(F)C6)CC5)C4)c(=O)c3c2)c1C#N (stereo partly drawn) [Compound 224] in the same way.
< 50%

What would you report for CCN(C)S(=O)(=O)Nc1ccc(F)c(Oc2ccc3ncc(OCC4CCN(C5CC6(C5)CN(c5cc7c(cc5F)c(N5CCC(=O)NC5=O)nn7C)C6)CC4)nc3c2)c1C#N [Compound 223] ?
< 50%

Further, for CCN(C)S(=O)(=O)Nc1ccc(F)c(Oc2ccc3ncn(C4CCC(N5CC6(CCN(c7cc8c(cc7F)c(N7CCC(=O)NC7=O)nn8C)CC6)C5)CC4)c(=O)c3c2)c1C#N (single isomer, unassigned) [Compound 221] ?
< 50%

Ok, now CCN(C)S(=O)(=O)Nc1ccc(F)c(Oc2ccc3ncc(OC4CCN(C5CCC(c6ccc(NC7CCC(=O)NC7=O)cc6F)CC5)CC4)nc3c2)c1C#N (single isomer, unassigned) [Compound 110]
50 to 90%

Please give the result for CCN(C)S(=O)(=O)Nc1ccc(F)c(Nc2ccc3ncn([C@@H]4COC5(CCN(C6CCC(c7ccc(NC8CCC(=O)NC8=O)cc7F)CC6)CC5)C4)c(=O)c3c2F)c1C#N (single isomer, unassigned) [Compound 90] too.
< 50%

The reported measurements were obtained from patent US20260297060A1.
